Where do these numbers come from? They come from the Deep4Chem optical property database.

test: solvent given as SMILES; conditions: in ClCCl
Kind request: treat 7 ns as inclusive, so fluorescence lifetime at 7 ns or higher is yes, anything lower is no.

>>> category("c1ccc2nc3cccc(-c4ccc(-n5c6ccccc6c6ccccc65)cc4)c3cc2c1")
"no"

Data request: Determine whether this compound has fluorescence lifetime no lower than 7 ns: CC(C)c1cccc(C(C)C)c1N1C(=O)c2cccc3c(Oc4ccccc4)ccc(c23)C1=O
Data returned: no

Data request: Same for O=P1(c2ccccc2)C(c2ccc(N(c3ccccc3)c3ccccc3)cc2)=Cc2cc3ccccc3cc21 (stereo not given)
Data returned: no

Data request: Same for c1ccc(N(c2ccccc2)c2ccc3c4cccc5c(N(c6ccccc6)c6ccccc6)ccc(c6cccc2c63)c54)cc1
Data returned: no

Data request: Same for COc1c2ccccc2c(OC)c2c1c1c(C)ccc(OC)c1n2C
Data returned: yes

----------
assay: solvent given as SMILES; settings: in ClC(Cl)Cl
The following compounds are listed with their measured fluorescence lifetime values.
Express it in ns; write the number only.

>>> meas_value("COc1ccc(C2=C3C=CC(C)=[N+]3[B-](F)(F)n3c(C)ccc32)cc1")
3.28

Data request: Requested read-out: fluorescence lifetime. Entry: CCC[Si](CCC)(CCC)c1cc2ccc3cccc4ccc(c1C(=O)NC(C)(C)C)c2c34
Data returned: 6.91

Data request: Same for CC(C)(C)c1ccc(Oc2cc3c4c(cc(Oc5ccc(C(C)(C)C)cc5)c5c6c(Oc7ccc(C(C)(C)C)cc7)cc7c8c(cc(Oc9ccc(C(C)(C)C)cc9)c(c2c45)c86)C(=O)OC7=O)C(=O)OC3=O)cc1
Data returned: 6.4

Data request: Same for Cc1ccc(-n2c3ccccc3c3cc(-c4ccc5[n+](c4)[B-](F)(F)n4c-5nc5c6ccccc6c6ccccc6c54)ccc32)cc1
Data returned: 15

Data request: Same for COc1ccc(-c2nc(C)cc(-c3ccc(-n4c5ccccc5c5ccccc54)cc3)n2)cc1
Data returned: 3.91

Data request: Same for COc1cc2c(cc1/C=C/C(=C(C#N)C#N)c1ccccc1)c1ccccc1n2C
Data returned: 8.11

Data request: Same for CN(C)c1ccc(/C=C/c2cc[n+](C)cc2)cc1
Data returned: 0.153

Data request: Same for C(#Cc1cccs1)C(C#Cc1cccs1)=Cc1ccc(C=C(C#Cc2cccs2)C#Cc2cccs2)cc1
Data returned: 1.6

----------
The following compounds are listed with their measured fluorescence lifetime values.
experiment: solvent given as SMILES; conditions: in CCOC(C)=O
Express it in ns; write the number only.

Reference set, count: 3
>>> meas_value("COC(=O)C[C@H](Cc1c[nH]c2ccccc12)NC(=O)[C@H](CC(=O)N[C@@H](CC1=CCc2ccccc21)C(=O)OC)NC(=O)[C@H](Cc1c[nH]c2ccccc12)NC(=O)OC(C)(C)C")
2.08
>>> meas_value("O=Cc1cc2c(cc3ccc4cccc5ccc2c3c45)[nH]1")
2.55
>>> meas_value("CCOC(=O)CN(CC(=O)OCC)c1ccc(-c2cc(-c3ccncc3)nc(-c3ccncc3)c2)cc1")
3.77

Now take the following compound into account.
Data request: Requested read-out: fluorescence lifetime. Entry: Cc1cc(C(F)(F)F)nc2c1ccc1nc(-c3ccc(Cl)cc3)cn12
Data returned: 6.72

----------
assay: solvent given as SMILES; details: in CCCCCCCCO
Kind request: treat 4 ns as inclusive, so fluorescence lifetime at 4 ns or higher is true, anything lower is false.

Please review the entries below; each comes with its answer.
>>> category("CC1=C(C(C)(C)C)C(C)=[N+]2C1=C(C)c1c(C)c(C(C)(C)C)c(C)n1[B-]2(F)F")
"true"
>>> category("CC1=CC(C)=[N+]2C1=Cc1c3ccccc3c(C#Cc3cccs3)n1[B-]2(F)F")
"false"
>>> category("NNC(=O)NNN1C(=O)c2cc(S(=O)(=O)[O-])cc3c(N)c(S(=O)(=O)[O-])cc(c23)C1=O")
"true"
>>> category("CCN(CC)c1ccc2c(C)cc(=O)oc2c1")
"false"
>>> category("O=C1CCCc2c1[nH]c1cc3c(cc21)OCO3")
"false"

Data request: Determine whether this compound has fluorescence lifetime no lower than 4 ns: CCCCCCCCCCCCCCCCOc1cc(C#Cc2ccc3ccccc3c2-c2c(C#Cc3cc(OCCCCCCCCCCCCCCCC)c(C#Cc4ccc(C=C(C#N)C#N)cc4)cc3OCCCCCCCCCCCCCCCC)ccc3ccccc23)c(OCCCCCCCCCCCCCCCC)cc1C#Cc1ccc(C=C(C#N)C#N)cc1
Data returned: false

Data request: Same for CCC1=C(C)C2=C(C)c3c(C)c(CC)c(C)n3[B-](F)(F)[N+]2=C1C
Data returned: true

Data request: Same for CCCCCCCCCCCCCCCCOc1cc(C#Cc2ccc3ccccc3c2)c(OCCCCCCCCCCCCCCCC)cc1C#Cc1ccc(C=C(C#N)C#N)cc1
Data returned: false
